molecular target: rat P2X3 receptor (Rattus norvegicus, UniProt P49654); construct: expressed in transfected cells; host or cells: CHO-K1; assay: P2X3/P2X2/3 FLIPR (Fluorometric Imaging Plate Reader) Assay, P2X3; format: cell-based; conditions: CHO-K1 cells transfected with rat P2X3; agonist α,β-meATP 1 μM; Table 1; read-out: P2X3 pKi (converted)
attribute measured: log10 Ki (log10 of the value in µM)
// units: µM (pre-log); metric: Ki; scale: log10

COC(C)c1ncnn1-c1cc(C(=O)NC(C)c2cnccn2)cc(-c2ccc(C)cn2)c1 (centres unmarked) ... -1.77
CCCc1ncnn1-c1cc(C(=O)N[C@@H](C)CO)cc(-c2ccc(C)cn2)c1 ... -2.32
COCCc1nc(C)nn1-c1cc(C(=O)N[C@@H](C)CO)cc(-c2ccc(C)cn2)c1 ... 0.52
CC(NC(=O)c1cc(-c2ccc(Cl)cn2)cc(-n2ncnc2C(C)(C)C)c1)c1cnccn1 (centres unmarked) ... -1.91
COCCc1ncnn1-c1cc(C(=O)N[C@@H](C)CO)cc(-c2ccc(C)cn2)c1 ... -1.22

Request: Entry Cc1ccc(-c2cc(C(=O)NC(C)c3cnccn3)cc(-n3ncnc3CC(C)C)c2)nc1 (centres unmarked) needs its log10 Ki filled in; supply it.
Response: -2.37

Request: Entry Cc1ccc(-c2cc(C(=O)NC(C)CO)cc(-n3cnnc3C(C)C)c2)cc1 (centres unmarked) needs its log10 Ki filled in; supply it.
Response: -0.81

Request: Entry CC(NC(=O)c1cc(-c2ccc(Cl)cn2)cc(-n2ncnc2CF)c1)c1cnccn1 (centres unmarked) needs its log10 Ki filled in; supply it.
Response: -1.50

----------
target: rat P2X3 receptor (Rattus norvegicus, UniProt P49654); construct: expressed in transfected cells; host or cells: CHO-K1; assay: P2X3/P2X2/3 FLIPR (Fluorometric Imaging Plate Reader) Assay, P2X3; assay type: cell-based; conditions: CHO-K1 cells transfected with rat P2X3; agonist α,β-meATP 1 μM; Table 1; read-out: P2X3 pKi (converted)
attribute measured: log10(Ki) (log10 of the value in nM)
// units: nM (pre-log); metric: Ki; scale: log10

CC(C)Cc1ncnn1-c1cc(C(=O)N[C@@H](C)CO)cc(-c2ccc(Cl)cn2)c1 ... 0.61
Cc1ccc(-c2cc(C(=O)NCc3cnc(C)cn3)cc(-n3ncnc3C(C)C)c2)nc1 ... 0.52
Cc1ccc(-c2cc(C(=O)NC(C)c3cnccn3)cc(-n3ncnc3C3CC3)c2)nc1 (centres unmarked) ... 1.28

Request: Entry `Cc1ccc(-c2cc(C(=O)NCc3cnc(C)cn3)cc(-n3ncnc3C(C)(F)F)c2)nc1` needs its log10(Ki) filled in; supply it.
Response: 0.27

Request: Entry `Cc1cnc(CNC(=O)c2cc(-c3ccc(Cl)cn3)cc(-n3ncnc3C(F)F)c2)cn1` needs its log10(Ki) filled in; supply it.
Response: 0.99

----------
Examples of compounds with documented Ki follow.
target: human P2X2/3 receptor (Homo sapiens, UniProt P56373+Q9UBL9); construct: expressed in transfected cells; host or cells: CHO-K1; assay: P2X3/P2X2/3 FLIPR (Fluorometric Imaging Plate Reader) Assay, P2X2/3; format: cell-based; details: CHO-K1 cells transfected with human P2X2/3; agonist α,β-meATP 5 μM; Table 1; read-out: P2X2/3 pKi (converted)
Sequence (Q9UBL9 whole entry): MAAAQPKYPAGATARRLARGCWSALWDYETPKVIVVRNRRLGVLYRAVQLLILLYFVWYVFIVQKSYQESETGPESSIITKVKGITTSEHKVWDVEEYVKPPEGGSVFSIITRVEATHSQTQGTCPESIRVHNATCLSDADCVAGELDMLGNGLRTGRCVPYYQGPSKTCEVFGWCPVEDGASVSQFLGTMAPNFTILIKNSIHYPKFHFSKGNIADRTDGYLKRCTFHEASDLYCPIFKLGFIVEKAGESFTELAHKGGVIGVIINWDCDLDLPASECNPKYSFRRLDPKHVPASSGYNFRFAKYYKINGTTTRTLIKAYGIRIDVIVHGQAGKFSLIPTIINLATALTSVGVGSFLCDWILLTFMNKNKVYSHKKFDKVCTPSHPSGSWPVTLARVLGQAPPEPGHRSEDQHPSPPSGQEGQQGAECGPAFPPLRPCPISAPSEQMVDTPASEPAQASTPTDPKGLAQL
Sequence (P56373 whole entry): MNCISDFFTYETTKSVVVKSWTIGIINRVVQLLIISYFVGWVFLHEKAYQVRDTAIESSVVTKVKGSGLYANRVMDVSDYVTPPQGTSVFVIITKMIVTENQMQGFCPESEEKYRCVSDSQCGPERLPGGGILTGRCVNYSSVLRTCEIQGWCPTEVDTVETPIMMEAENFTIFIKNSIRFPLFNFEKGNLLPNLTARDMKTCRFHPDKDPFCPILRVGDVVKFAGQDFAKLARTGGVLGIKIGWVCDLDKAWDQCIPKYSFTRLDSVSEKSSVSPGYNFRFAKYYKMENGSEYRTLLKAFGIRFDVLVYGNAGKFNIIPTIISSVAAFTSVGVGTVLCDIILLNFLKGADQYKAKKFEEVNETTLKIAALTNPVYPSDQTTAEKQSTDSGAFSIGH

# example entries with known answers
Cc1ccc(-c2cc(C(=O)N[C@@H](C)CO)cc(-n3nncc3C)c2)cc1 [Compound 13] ... 8130 nM
Cc1ccc(-c2cc(C(=O)NCc3cnc(C)cn3)cc(-n3ncnc3C(F)(F)F)c2F)nc1 [Compound 164] ... 302 nM
CCn1cc(-c2cc(C(=O)N[C@H](C)COC)cc(-c3ccc(C)cc3)c2)nn1 [Compound 39] ... 10000 nM

With those in mind, consider the next compound.
Request: # lookup: human P2X2/3 receptor (Homo sapiens, UniProt P56373+Q9UBL9) Ki, key = Cc1ccc(-c2cc(C(=O)NC3CC3)cc(-n3ncnc3C(F)(F)F)c2)cc1 [Compound 64]
Response: 309 nM

----------
Target: rat P2X3 receptor (Rattus norvegicus)
Construct: expressed in transfected cells; host or cells: CHO-K1
Sequence (P49654 1-397): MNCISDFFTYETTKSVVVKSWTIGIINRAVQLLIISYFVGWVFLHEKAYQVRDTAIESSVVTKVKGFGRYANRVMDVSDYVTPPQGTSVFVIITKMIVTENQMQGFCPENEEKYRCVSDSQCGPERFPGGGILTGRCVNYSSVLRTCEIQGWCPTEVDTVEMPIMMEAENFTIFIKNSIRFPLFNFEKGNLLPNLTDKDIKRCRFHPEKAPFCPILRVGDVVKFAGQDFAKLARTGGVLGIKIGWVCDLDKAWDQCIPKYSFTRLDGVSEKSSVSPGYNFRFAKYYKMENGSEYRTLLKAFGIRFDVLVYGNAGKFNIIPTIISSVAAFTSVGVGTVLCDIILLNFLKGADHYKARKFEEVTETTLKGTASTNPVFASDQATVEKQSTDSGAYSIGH
Assay: P2X3/P2X2/3 FLIPR (Fluorometric Imaging Plate Reader) Assay, P2X3
Assay type: cell-based
Conditions: CHO-K1 cells transfected with rat P2X3; agonist α,β-meATP 1 μM; Table 1; read-out: P2X3 pKi (converted)
Examples of compounds with documented Ki follow.
Note: unit nM is implicit; provide only the numeric part.

# example entries with known answers
Cc1ccc(-c2cc(C(=O)NC(C)c3cnccn3)cc(-n3nncc3C(C)C)c2)cc1 (stereo not shown) [Compound 12] ... 7.94
Cc1ccc(-c2cc(C(=O)NC(C)c3cnccn3)cc(-n3ncnc3C(C)N(C)C)c2)cc1 (stereo not shown) [Compound 61] ... 5.25
COC[C@@H](C)NC(=O)c1cc(-c2ccc(C)cc2)cc(-n2c(C)nnc2C(C)C)c1 [Compound 32] ... 427
C[C@@H](CO)NC(=O)c1cc(-c2ccc(Cl)cn2)cc(-n2ncnc2C(F)(F)F)c1 [Compound 81] ... 45.7

Request: Entry Cc1ccc(-c2cc(-n3ncnc3C(C)C)cc(C(=O)N[C@@H](C)CO)c2F)nc1 [Compound 174] needs its Ki filled in; supply it.
Response: 6.46

Request: Entry Cc1ccc(-c2cc(-n3ncnc3C(F)(F)F)cc(C(=O)NC(C)c3cnccn3)c2F)nc1 (stereo not shown) [Compound 168] needs its Ki filled in; supply it.
Response: 13.5

Request: Entry Cc1ccc(-c2cc(-n3ncnc3C(F)(F)F)cc(C(=O)NCc3cnc(C)cn3)c2F)nc1 [Compound 169] needs its Ki filled in; supply it.
Response: 4.27

Request: Entry CC(C)Cc1ncnn1-c1cc(C(=O)NC(C)c2cnccn2)cc(-c2ccc(Cl)cn2)c1 (stereo not shown) [Compound 74] needs its Ki filled in; supply it.
Response: 4.17

Request: Entry CCCc1ncnn1-c1cc(C(=O)N[C@@H](C)CO)cc(-c2ccc(Cl)cn2)c1 [Compound 111] needs its Ki filled in; supply it.
Response: 18.2

Request: Entry Cc1ccc(-c2cc(C(=O)NCc3cnc(C)cn3)cc(-c3ncn(C(C)C)n3)c2)cc1 [Compound 117] needs its Ki filled in; supply it.
Response: 11.5

Request: Entry Cc1ccc(-c2cc(C(=O)N[C@@H](C)CO)cc(-n3ncnc3CC(C)C)c2)nc1 [Compound 131] needs its Ki filled in; supply it.
Response: 3.72

Request: Entry COCC(C)NC(=O)c1cc(-c2ccc(C)cc2)cc(-n2ccnn2)c1 (stereo not shown) [Compound 1] needs its Ki filled in; supply it.
Response: 1820

Request: Entry Cc1ccc(-c2cc(C(=O)NC(C)c3cnccn3)cc(-n3ncnc3C(F)(F)F)c2)nc1 (stereo not shown) [Compound 98] needs its Ki filled in; supply it.
Response: 2.24

Request: Entry Cc1cnc(CNC(=O)c2cc(-c3ccc(Cl)cn3)cc(-n3ncnc3C(F)(F)F)c2)cn1 [Compound 80] needs its Ki filled in; supply it.
Response: 8.91

Request: Entry CCn1cc(-c2cc(C(=O)N[C@H](C)COC)cc(-c3ccc(C)cc3)c2)nn1 [Compound 39] needs its Ki filled in; supply it.
Response: 8510

Request: Entry Cc1ccc(-c2cc(C(=O)N[C@@H](C)CO)cc(-n3ncnc3C(C)N(C)C)c2)cc1 (stereo partly shown) [Compound 105] needs its Ki filled in; supply it.
Response: 5.25

----------
target: rat P2X3 receptor (Rattus norvegicus); construct: expressed in transfected cells; host or cells: CHO-K1; assay: P2X3/P2X2/3 FLIPR (Fluorometric Imaging Plate Reader) Assay, P2X3; format: cell-based; conditions: CHO-K1 cells transfected with rat P2X3; agonist α,β-meATP 1 μM; Table 1; read-out: P2X3 pKi (converted)
attribute measured: Ki (nM)
Note: unit nM is implicit; provide only the numeric part.

COCC(C)NC(=O)c1cc(-c2ccc(C)cc2)cc(-n2nccn2)c1 (centres unmarked) [Compound 3] ... 2950
Cc1ccc(-c2cc(C(=O)NC(C)c3cnccn3)cc(-n3ncnc3C3CCC3)c2)nc1 (centres unmarked) [Compound 87] ... 2.63
COCCc1ncnn1-c1cc(C(=O)NCc2cnc(C)cn2)cc(-c2ccc(C)cn2)c1 [Compound 147] ... 4.57
COC[C@@H](C)NC(=O)c1cc(-c2ccc(C)cc2)cc(-n2nncc2C)c1 [Compound 6] ... 269
Cc1ccc(-c2cc(C(=O)NCc3cnc(C)cn3)cc(-n3ncnc3C(C)C)c2)c(F)c1 [Compound 135] ... 4.79

Request: Entry Cc1ccc(-c2cc(C(=O)N[C@@H](C)CO)cc(-n3ncnc3C(C)C)c2)nc1 [Compound 55] needs its Ki filled in; supply it.
Response: 5.37

Request: Entry Cc1ccc(-c2cc(C(=O)N[C@@H](C)CO)cc(-n3ncnc3C(F)(F)F)c2)cc1 [Compound 65] needs its Ki filled in; supply it.
Response: 6.76

Request: Entry CC(C)c1ncnn1-c1cc(C(=O)NC(C)c2cnccn2)cc(-c2ccc(Cl)cn2)c1 (centres unmarked) [Compound 120] needs its Ki filled in; supply it.
Response: 7.59
